Reference source for all entries: patent US20080207605A1

- Test system: Huh7 human hepatoma cell line (the 21-5 cell line)
- particulars: read-out: IC50 for cytotoxicity (concentration decreasing cell viability by 50%); 72 hr; host cell rRNA levels by TaqMan RT-PCR
pIC50: −log10 of the molar value.
measurement.name: pIC50

Ask: Note pIC50 for the compound shown: O=C(NO)C1(CS(=O)(=O)c2ccc(Oc3ccc(Cl)cc3)cc2)CCOCC1
Result: ~4.60
